All values here come from BindingDB's records for doi:10.1016/j.bmcl.2007.05.021.

Here the recorded pIC50 is given for each entry.
Biological target: Transcription factor Jun (Homo sapiens, UniProt P05412)
Sequence (P05412 whole entry): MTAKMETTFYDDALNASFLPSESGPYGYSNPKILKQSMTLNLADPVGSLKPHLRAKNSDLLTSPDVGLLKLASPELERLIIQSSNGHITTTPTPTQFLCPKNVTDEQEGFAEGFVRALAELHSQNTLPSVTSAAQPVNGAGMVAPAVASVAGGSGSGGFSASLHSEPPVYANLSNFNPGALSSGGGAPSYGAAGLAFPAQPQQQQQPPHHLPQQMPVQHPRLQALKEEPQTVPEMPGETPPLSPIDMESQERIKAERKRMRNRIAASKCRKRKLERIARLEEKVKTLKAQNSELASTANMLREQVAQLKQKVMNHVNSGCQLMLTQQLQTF
Test: Inhibition of AP1-mediated gene transcription in HepG2 cells by luciferase reporter gene assay
pIC50: −log10 of the molar value.

The following compounds have reported results that may help.
| COMPOUND | MEASUREMENT |
| --- | --- |
| COc1cc2c3c(c4cc(OC)c(OC)cc4c2cc1OC)[C@@H](O)[C@@H]1CCCN1C3 | < 6.52 |
| COc1ccc2c3c(c4cc(OC)c(OC)cc4c2c1)C[N+]1([O-])CCC[C@H]1[C@@H]3O (stereo partly drawn) [tylophoridicine F] | < 5.52 |
| COc1ccc2c3c(c4cc(OC)c(O)cc4c2c1)CN1CCC[C@@H]1C3 [[(R)-(+)-deoxytylophorinidine] | 7.17 |
| COc1ccc2c3c(c4cc(OC)c(O)cc4c2c1)C[N+]1([O-])CCC[C@H]1[C@H]3O (stereo partly drawn) [tylophoridicine C] | < 5.52 |
| COc1ccc2c3c(c4cc(OC)c(OC)cc4c2c1)CN1CCC[C@H]1[C@@H]3O [tylophorinine] | 6.96 |
| COc1cc2c(cc1OC)-c1cc(OC)c(OC)cc1C1CN3CCC[C@H]3C=C21 (stereo partly drawn) | < 6.52 |
| COc1cc2c3c(c4cc(OC)c(OC)cc4c2cc1O)CN1CCC[C@H]1[C@H]3O | < 6.00 |

Please look at the following compound next.
stdin: GET /values?readout=pIC50&item= COc1ccc2c3c(c4cc(OC)c(O)cc4c2c1)CN1CCC[C@H]1[C@H]3O [tylophorinidine]
stdout: 7.19
